meta.source: paper PMC10460844

- Test system: rat erythrocytes
- protocol_text: Hemolysis assay
- Type: cell-based
- condition_notes: pH 7.4
Square brackets hold non-standard residues; d marks the D form. Peptide text beside a SMILES is read from it. Gly(N(CH2)2(3-indolyl)) = O=C(O)CNCCc1c[nH]c2ccccc12; Nspe = C[C@H](NCC(=O)O)c1ccccc1; Nlys = NCCCCNCC(=O)O
Could you please mark true for values of HC50 below 30 µM and false for values at or above it?

- compound: "C[C@@H](c1ccccc1)N(CC(=O)N(CCCCN)CC(=O)N(CC(=O)N(CC(=O)N(CCCCN)CC(=O)N(CC(=O)N(CC(=O)N(CCCCN)CC(=O)N(CC(=O)N(CCc1c[nH]c2ccccc12)CC(N)=O)[C@@H](C)c1ccccc1)[C@@H](C)c1ccccc1)[C@@H](C)c1ccccc1)[C@@H](C)c1ccccc1)[C@@H](C)c1ccccc1)C(=O)CN(CCc1c[nH]c2ccccc12)C(=O)CNCCCCN [peptoid 17] (H-[Nlys][Gly(N(CH2)2(3-indolyl))][Nspe][Nlys][Nspe][Nspe][Nlys][Nspe][Nspe][Nlys][Nspe][Gly(N(CH2)2(3-indolyl))]-NH2)"
  study_target: "rat erythrocytes"
  class_name: "false"

Is it true that HC50 reported for C[C@@H](c1ccccc1)N(CC(N)=O)C(=O)CN(CCCCN)C(=O)CN(CCCCN)C(=O)CN(C(=O)CN(C(=O)CN(CCCCN)C(=O)CN(C(=O)CN(C(=O)CN(CCCCN)C(=O)CN(CCc1c[nH]c2ccccc12)C(=O)CN(CCc1c[nH]c2ccccc12)C(=O)CNCCCCN)[C@@H](C)c1ccccc1)[C@@H](C)c1ccccc1)[C@@H](C)c1ccccc1)[C@@H](C)c1ccccc1 is less than 30 µM?
false

###

Listed compounds paired with reported HC10
- Tested on: rat erythrocytes
- protocol_text: Hemolysis assay
- Assay type: cell-based
- condition_notes: pH 7.4
- Method: The hemolysis assay was performed using rat erythrocytes in phosphate‐buffered saline (PBS), as reported by Mendes et al.^[ [45] ^] Animal studies were approved by the Laboratory Animal Resource Center of Gwangju Institute of Science and Technology. […] Aliquots (150 µL) of the supernatant were transferred to fresh 96‐well plates, and the absorbance of each well was measured at 540 nm using a microplate reader. […]

- smiles_representation: "C[C@@H](c1ccccc1)N(CC(N)=O)C(=O)CN(C(=O)CN(CCCCN)C(=O)CN(C(=O)CN(C(=O)CN(CCCCN)C(=O)CN(C(=O)CN(CCCCN)C(=O)CN(CCCCN)C(=O)CN(CCc1c[nH]c2ccccc12)C(=O)CN(CCc1c[nH]c2ccccc12)C(=O)CNCCCCN)[C@@H](C)c1ccccc1)[C@@H](C)c1ccccc1)[C@@H](C)c1ccccc1)[C@@H](C)c1ccccc1"
  HC10: "> 100 µM"
- smiles_representation: "C[C@@H](c1ccccc1)N(CC(N)=O)C(=O)CN(C(=O)CN(CCCCN)C(=O)CN(C(=O)CN(C(=O)CN(CCCCN)C(=O)CN(C(=O)CN(C(=O)CN(CCCCN)C(=O)CN(C(=O)CN(C(=O)CN(CCCCN)C(=O)CN(Cc1ccccc1)C(=O)CNCc1ccccc1)[C@@H](C)c1ccccc1)[C@@H](C)c1ccccc1)[C@@H](C)c1ccccc1)[C@@H](C)c1ccccc1)[C@@H](C)c1ccccc1)[C@@H](C)c1ccccc1)[C@@H](C)c1ccccc1"
  HC10: "< 3.1 µM"

We now examine a further compound.
Find the measured HC10 of C[C@@H](c1ccccc1)N(CC(N)=O)C(=O)CN(C(=O)CN(CCCCN)C(=O)CN(C(=O)CN(CCc1c[nH]c2ccccc12)C(=O)CN(CCCCN)C(=O)CN(CCc1c[nH]c2ccccc12)C(=O)CN(C(=O)CN(CCCCN)C(=O)CN(C(=O)CN(C(=O)CNCCCCN)[C@@H](C)c1ccccc1)[C@@H](C)c1ccccc1)[C@@H](C)c1ccccc1)[C@@H](C)c1ccccc1)[C@@H](C)c1ccccc1 and report it.
28.1 µM

###

- Tested on: rat erythrocytes
- protocol_text: Hemolysis assay
- Assay type: cell-based
- condition_notes: pH 7.4
measured_property: HC50 (µM)
Expressed in µM, but write only the number.

Find the measured HC50 of C[C@@H](c1ccccc1)N(CC(N)=O)C(=O)CN(C(=O)CN(CCCCN)C(=O)CN(C(=O)CN(C(=O)CN(CCCCN)C(=O)CN(C(=O)CN(C(=O)CN(CCCCN)C(=O)CN(C(=O)CN(CCCCN)C(=O)CN(CCCCN)C(=O)CN(CCc1c[nH]c2ccccc12)C(=O)CNCCc1c[nH]c2ccccc12)[C@@H](C)c1ccccc1)[C@@H](C)c1ccccc1)[C@@H](C)c1ccccc1)[C@@H](C)c1ccccc1)[C@@H](C)c1ccccc1)[C@@H](C)c1ccccc1 and report it.
39.4

###

Listed compounds paired with reported Hmax (100 µM)
- System: rat erythrocytes
- protocol_text: Hemolysis assay
- Assay type: cell-based
- Description: The hemolysis assay was performed using rat erythrocytes in phosphate‐buffered saline (PBS), as reported by Mendes et al.^[ [45] ^] Animal studies were approved by the Laboratory Animal Resource Center of Gwangju Institute of Science and Technology. […] Aliquots (150 µL) of the supernatant were transferred to fresh 96‐well plates, and the absorbance of each well was measured at 540 nm using a microplate reader. […]
Counter-ions that a name gives are not always drawn. Square brackets hold non-standard residues; d marks the D form. Peptide text beside a SMILES is read from it. Gly(N(CH2)2(3-indolyl)) = O=C(O)CNCCc1c[nH]c2ccccc12; Nspe = C[C@H](NCC(=O)O)c1ccccc1; Nlys = NCCCCNCC(=O)O

- compound: "C[C@@H](c1ccccc1)N(CC(=O)N(CCc1c[nH]c2ccccc12)CC(=O)N(CCCCN)CC(=O)N(CC(=O)N(CC(=O)N(CCCCN)CC(=O)N(CC(=O)N(CC(=O)N(CCCCN)CC(=O)N(CC(=O)N(CCc1c[nH]c2ccccc12)CC(N)=O)[C@@H](C)c1ccccc1)[C@@H](C)c1ccccc1)[C@@H](C)c1ccccc1)[C@@H](C)c1ccccc1)[C@@H](C)c1ccccc1)C(=O)CNCCCCN [peptoid 16] (H-[Nlys][Nspe][Gly(N(CH2)2(3-indolyl))][Nlys][Nspe][Nspe][Nlys][Nspe][Nspe][Nlys][Nspe][Gly(N(CH2)2(3-indolyl))]-NH2)"
  Hmax (100 µM): "100.3±1.7%"
- compound: "C[C@H](NCC(=O)N(CCCCN)CC(=O)N(CC(=O)N(CC(=O)N(CCCCN)CC(=O)N(CC(=O)N(CC(=O)N(CCCCN)CC(=O)N(CC(=O)N(CC(=O)N(CCCCN)CC(=O)N(CC(N)=O)[C@@H](C)c1ccccc1)[C@@H](C)c1ccccc1)[C@@H](C)c1ccccc1)[C@@H](C)c1ccccc1)[C@@H](C)c1ccccc1)[C@@H](C)c1ccccc1)[C@@H](C)c1ccccc1)c1ccccc1 [peptoid 48] (H-[Nspe][Nlys][Nspe][Nspe][Nlys][Nspe][Nspe][Nlys][Nspe][Nspe][Nlys][Nspe]-NH2)"
  Hmax (100 µM): "79.9±3.6%"
- compound: "C[C@@H](c1ccccc1)N(CC(N)=O)C(=O)CN(C(=O)CN(CCCCN)C(=O)CN(C(=O)CN(C(=O)CN(CCCCN)C(=O)CN(C(=O)CN(C(=O)CN(CCCCN)C(=O)CN(C(=O)CN(C(=O)CN(CCCCN)C(=O)CN(CCc1c[nH]c2ccccc12)C(=O)CNCCc1c[nH]c2ccccc12)[C@@H](C)c1ccccc1)[C@@H](C)c1ccccc1)[C@@H](C)c1ccccc1)[C@@H](C)c1ccccc1)[C@@H](C)c1ccccc1)[C@@H](C)c1ccccc1)[C@@H](C)c1ccccc1"
  Hmax (100 µM): "101.6±5.8%"

GET Hmax (100 µM) | system: rat erythrocytes | item: C[C@@H](c1ccccc1)N(CC(N)=O)C(=O)CN(C(=O)CN(CCCCN)C(=O)CN(C(=O)CN(C(=O)CN(CCCCN)C(=O)CN(C(=O)CN(C(=O)CN(CCCCN)C(=O)CN(CCc1c[nH]c2ccccc12)C(=O)CN(C(=O)CNCCCCN)[C@@H](C)c1ccccc1)[C@@H](C)c1ccccc1)[C@@H](C)c1ccccc1)[C@@H](C)c1ccccc1)[C@@H](C)c1ccccc1)[C@@H](C)c1ccccc1 [peptoid 10]
101.4±5.1%

GET Hmax (100 µM) | system: rat erythrocytes | item: C[C@@H](c1ccccc1)N(CC(N)=O)C(=O)CN(CCCCN)C(=O)CN(CCCCN)C(=O)CN(C(=O)CN(C(=O)CN(CCCCN)C(=O)CN(C(=O)CN(C(=O)CN(CCCCN)C(=O)CN(CCc1c[nH]c2ccccc12)C(=O)CN(CCc1c[nH]c2ccccc12)C(=O)CNCCCCN)[C@@H](C)c1ccccc1)[C@@H](C)c1ccccc1)[C@@H](C)c1ccccc1)[C@@H](C)c1ccccc1 [32-HCl]
8.7±0.6%

###

Listed molecules paired with reported HC50
- Test system: rat erythrocytes
- protocol_text: Hemolysis assay
- Assay type: cell-based
- condition_notes: pH 7.4
Expressed in µM, but write only the number.

- smiles_representation: "C[C@@H](c1ccccc1)N(CC(N)=O)C(=O)CN(C(=O)CN(CCCCN)C(=O)CN(C(=O)CN(C(=O)CN(CCCCN)C(=O)CN(C(=O)CN(C(=O)CN(CCCCN)C(=O)CN(C(=O)CN(C(=O)CN(CCCCN)C(=O)CNCCc1c[nH]c2ccccc12)[C@@H](C)c1ccccc1)[C@@H](C)c1ccccc1)[C@@H](C)c1ccccc1)[C@@H](C)c1ccccc1)[C@@H](C)c1ccccc1)[C@@H](C)c1ccccc1)[C@@H](C)c1ccccc1"
  study_target: "rat erythrocytes"
  unit_symbol: "µM"
  observed_value: 13.9

We now examine a further molecule.
Find the measured HC50 of C[C@@H](c1ccccc1)N(CC(N)=O)C(=O)CN(C(=O)CN(CCCCN)C(=O)CN(C(=O)CN(CCCCN)C(=O)CN(CCCCN)C(=O)CN(C(=O)CN(C(=O)CN(CCCCN)C(=O)CN(C(=O)CN(C(=O)CN(CCCCN)C(=O)CN(CCc1c[nH]c2ccccc12)C(=O)CNCCc1c[nH]c2ccccc12)[C@@H](C)c1ccccc1)[C@@H](C)c1ccccc1)[C@@H](C)c1ccccc1)[C@@H](C)c1ccccc1)[C@@H](C)c1ccccc1)[C@@H](C)c1ccccc1 and report it.
63.0
